# key: entry, value: melting point
observation type: melting point

1) CCOCc1nc2c(N)nc3ccccc3c2n1NCCC(C)C [Example 12] :: 129 to 132 °C
2) CCOCc1nc2c(N)nc3ccccc3c2n1NC(CC)CC [Example 9] :: 125 to 128 °C
3) CCOCc1nc2c(N)nc3ccccc3c2n1N(C)C [Example 7] :: 213 to 215 °C
4) CCOCc1nc2c(N)nc3ccccc3c2n1NCCCNC(=O)Nc1ccccc1 [Example 15] :: 177 to 179 °C
5) CCOCc1nc2c(N)nc3ccccc3c2n1NCCCNC(C)=O [Example 34] :: 178 to 181 °C
6) CCOCc1nc2c(N)nc3ccccc3c2n1NCc1ccccc1 [Example 4] :: 152 to 155 °C
7) CCCc1nc2c(N)nc3c(c2n1NC(C)C)CCCC3 [Example 17] :: 162 to 164 °C
8) CCOCc1nc2c(N)nc3c(c2n1NC(C)C)CCCC3 [Example 11] :: 144 to 146 °C
9) CCCc1nc2c(N)nc3cc(-c4ccccc4)ccc3c2n1NC(C)C [Example 31] :: 217 to 220 °C
10) CCc1nc2c(N)nc3ccccc3c2n1NC(C)C [Example 36] :: 245 to 247 °C
11) CCOCc1nc2c(N)nc3ccccc3c2n1N1CCOCC1 [Example 13] :: 223 to 224 °C
12) CCc1nc2c(N)nc3ccccc3c2n1NCCCNC(C)=O [Example 40] :: 167 to 169 °C
13) CCCCc1nc2c(N)nc3ccccc3c2n1NC(C)C [Example 1] :: 157.1 to 158.7 °C
14) CCOCc1nc2c(N)nc3ccccc3c2n1NC1CCCCC1 [Example 6] :: 143 to 145 °C
15) CCNC(=O)NCCCNn1c(COCC)nc2c(N)nc3ccccc3c21 [Example 38] :: 138 to 141 °C
16) CCNC(=O)NCCCNn1c(COCC)nc2c(N)nc3c(c21)CCCC3 [Example 39] :: 189 to 191 °C
17) CCOCc1nc2c(N)nc3ccccc3c2n1NCCCNC(=O)NC(C)C [Example 25] :: 174 to 177 °C
18) CCOCc1nc2c(N)nc3c(c2n1NCCCNC(=O)N1CCOCC1)CCCC3 [Example 28] :: 152 to 154 °C
19) CCCCc1nc2c(N)nc3ccccc3c2n1NCc1ccccc1 [Example 2] :: 159.3 to 160.5 °C
20) CCOCc1nc2c(N)nc3ccccc3c2n1NCCCNS(C)(=O)=O [Example 14] :: 148 to 150 °C
21) CCCc1nc2c(N)nc3cc(CCc4cccnc4)ccc3c2n1NC(C)C [Example 35] :: 100 to 103 °C
22) CCCc1nc2c(N)nc3cc(-c4cccc(NS(C)(=O)=O)c4)ccc3c2n1NC(C)C [Example 27] :: 217 to 227 °C
23) CCCc1nc2c(N)nc3cc(-c4cccnc4)ccc3c2n1NC(C)C [Example 19] :: 218 to 219 °C
24) CCc1nc2c(N)nc3c(c2n1NCCCNC(C)=O)CCCC3 [Example 41] :: 175 to 176 °C
25) CCOCc1nc2c(N)nc3c(c2n1NCCCNC(=O)C(C)C)CCCC3 [Example 33] :: 163 to 165 °C
26) CCOCc1nc2c(N)nc3c(c2n1NCCCNC(=O)NC(C)C)CCCC3 [Example 26] :: 185 to 187 °C
27) CC(C)Nn1c(CO)nc2c(N)nc3ccccc3c21 [Example 42] :: 228 to 229 °C
28) CCOCc1nc2c(N)nc3cc(OCCCNS(C)(=O)=O)ccc3c2n1NC(C)C [Example 30] :: 181 to 183 °C
29) CCOCc1nc2c(N)nc3ccccc3c2n1NC(C)C [Example 5] :: 162 to 164 °C
30) CCOCc1nc2c(N)nc3cc(OCc4ccccc4)ccc3c2n1NC(C)C [Example 20] :: 194 to 196 °C
31) CCOCc1nc2c(N)nc3ccccc3c2n1NCCCNC(=O)N1CCOCC1 [Example 23] :: 158 to 160 °C
32) CCOCc1nc2c(N)nc3ccccc3c2n1NCCCNC(=O)C1CCCC1 [Example 24] :: 75 to 77 °C
33) CCOCc1nc2c(N)nc3c(c2n1NCCCNC(C)=O)CCCC3 [Example 37] :: 198 to 200 °C
34) CCOCc1nc2c(N)nc3ccccc3c2n1NCCCNC(=O)C(C)C [Example 32] :: 108 to 110 °C
35) CCOCc1nc2c(N)nc3ccccc3c2n1NCC(C)C [Example 10] :: 137 to 140 °C
36) CCCc1nc2c(N)nc3cc(-c4cccc(C(=O)N5CCOCC5)c4)ccc3c2n1NC(C)C [Example 29] :: 274 to 276 °C
37) CCCc1nc2c(N)nc3ccccc3c2n1NC(C)C [Example 16] :: 181 to 184 °C
38) Cc1nc2c(N)nc3ccccc3c2n1NC(C)C [Example 3] :: 227 to 229 °C
